The origin of these recorded values is patent US11840686B2.

Tested on: human PKK mRNA
assay remarks: Dose-dependent antisense inhibition of human PKK in HepaRG cells, 0.11-3.00 uM (Example 6)
Format: cell-based
run conditions: electroporation, 0.11 μM, approx. 16 hours, relative to untreated control cells
Strand notation (5' to 3'): a small letter for the sugar, then the base; units joined by * are phosphorothioate-linked, units joined directly phosphodiester-linked; [ ] holds rarer units or linkages, { } end groups; capitals alone tell only the bases. e = 2'-O-(2-methoxyethyl) (MOE); k = constrained ethyl (cEt); [5mC] = 5-methylcytosine; d = 2'-deoxy (DNA)
measurement name: percent inhibition of PKK mRNA, 0.11 μM
Write your answer as a measured quantity: the number, then the unit.

Example cases with answers are listed next.
547859 (antisense e[5mC]*e[5mC]*kT*d[5mC]*dT*d[5mC]*dA*dT*dA*dT*d[5mC]*dA*dA*k[5mC]*kT*e[5mC]) [compound 547859]    29%
547877 (antisense eA*eA*k[5mC]*dA*d[5mC]*dT*dG*d[5mC]*dT*dA*dA*d[5mC]*d[5mC]*kT*kT*eA) [compound 547877]    29%

Prompt: Consider the substance shown here: 548570 (eA*eT*kG*d[5mC]*d[5mC]*dT*dT*dG*dT*dG*d[5mC]*d[5mC]*dT*kA*kT*eT; antisense) [compound 548570] What is its recorded percent inhibition of PKK mRNA, 0.11 μM?
Response: 20%

----------
Tested on: human PKK mRNA
assay remarks: Dose-dependent antisense inhibition of human PKK in HepaRG cells, 0.11-3.00 uM (Example 6)
Assay type: cell-based
run conditions: 0.11-3.00 μM
Strand notation (5' to 3'): a small letter for the sugar, then the base; units joined by * are phosphorothioate-linked, units joined directly phosphodiester-linked; [ ] holds rarer units or linkages, { } end groups; capitals alone tell only the bases. e = 2'-O-(2-methoxyethyl) (MOE); k = constrained ethyl (cEt); [5mC] = 5-methylcytosine; d = 2'-deoxy (DNA)
measurement name: IC50 (nM)
Numbers only, in nM.

Please review the entries below; each comes with its answer.
548197 (eT*eG*k[5mC]*dT*dT*dG*dG*d[5mC]*dT*dT*d[5mC]*dA*dA*kT*kA*eT; antisense) [compound 548197]    800
548201 (eT*eG*kT*dT*d[5mC]*dT*dA*dA*dT*dG*dT*dG*dG*k[5mC]*kA*e[5mC]; antisense) [compound 548201]    800

Prompt: Request: IC50, test system human PKK mRNA, entry 548061 (eG*e[5mC]*kT*dT*dG*dT*dG*dT*d[5mC]*dA*d[5mC]*d[5mC]*dT*kT*kT*eG; antisense) [compound 548061]
Response: 400

----------
Test system: human PKK mRNA
assay remarks: Dose-dependent antisense inhibition of human PKK in HepaRG cells, 0.12-10.00 uM (Example 4)
Format: cell-based
run conditions: Table 32, 10.00 μM, electroporation, ~16 h
Strand notation (5' to 3'): a small letter for the sugar, then the base; units joined by * are phosphorothioate-linked, units joined directly phosphodiester-linked; [ ] holds rarer units or linkages, { } end groups; capitals alone tell only the bases. e = 2'-O-(2-methoxyethyl) (MOE); [5mC] = 5-methylcytosine; d = 2'-deoxy (DNA)
Assign percent inhibition of PKK at 10.00 μM to each entry below.
Give bare numbers, in %.

530988 (eT*e[5mC]*e[5mC]*eA*eA*dA*dG*dT*d[5mC]*dA*dA*d[5mC]*dT*d[5mC]*d[5mC]*e[5mC]*eG*eG*eG*eT; antisense) [compound 530988]    78
530959 (antisense eT*e[5mC]*eA*eA*e[5mC]*dA*d[5mC]*dT*dG*d[5mC]*dT*dA*dA*d[5mC]*d[5mC]*eT*eT*eA*eG*eA) [compound 530959]    94
530967 (antisense e[5mC]*eA*eA*e[5mC]*e[5mC]*dA*dA*dT*dT*dT*d[5mC]*dT*dG*dA*dA*eA*eG*eG*eG*e[5mC]) [compound 530967]    91
530970 (antisense eT*eT*eG*eG*eT*dG*dT*dG*d[5mC]*d[5mC]*dA*d[5mC]*dT*dT*dT*e[5mC]*eA*eG*eA*eT) [compound 530970]    84

Prompt: // returns reported percent inhibition of PKK at 10.00 μM for input 530933 (antisense eT*eG*eG*eA*eG*dG*dT*dG*dA*dG*dT*d[5mC]*dT*d[5mC]*dT*eT*eG*eT*e[5mC]*eA) [compound 530933]
Response: 66
